Assay: Caco-2 A-B permeability
Type: in vitro ADME
Conditions: human, pH 6.5–7.4, test concentration = MIC against H. pylori (19-50 μM), reference drugs 10 μM
Below, each entry is listed alongside its reported Papp.
Assay readout: Papp (×10⁻⁶ cm/s)

compound="CC(C)NCC(O)COc1cccc2ccccc12 (stereo not drawn) [Propranolol, reference compound]" assay_readout=Papp data_value=39
compound=O=S(=O)(Oc1cccc(-c2nc3sccn3c2-c2ccccc2)c1)C1CCCCC1 assay_readout=Papp data_value=0.04
compound=NS(=O)(=O)Oc1cccc(-c2nc3sccn3c2-c2ccccc2)c1 assay_readout=Papp data_value=16.9

---

Below, each entry is listed alongside its reported Papp.
Experiment: Caco-2 A-B permeability
Assay type: in vitro ADME
Details: human, pH 6.5–7.4, test concentration = MIC against H. pylori (19-50 μM), reference drugs 10 μM
Assay readout: Papp

compound="CS(=O)(=O)Oc1cccc(-c2nc3sccn3c2-c2ccccc2)c1 [Compound 1a]" assay_readout=Papp data_value="18.6 ×10⁻⁶ cm/s"
compound="CS(=O)(=O)c1cccc(-c2c(-c3cccc(OS(=O)(=O)C4CCCCC4)c3)nc3sccn23)c1 [Compound 2d]" assay_readout=Papp data_value="0.07 ×10⁻⁶ cm/s"
compound="CC(CCc1ccccc1)NCC(O)c1ccc(O)c(C(N)=O)c1 (stereo not shown) [Labetalol, reference compound]" assay_readout=Papp data_value="19.2 ×10⁻⁶ cm/s"
compound="CS(=O)(=O)c1cccc(-c2c(-c3cccc(OS(=O)(=O)c4ccc(F)cc4)c3)nc3sccn23)c1 [Compound 2f]" assay_readout=Papp data_value="1.98 ×10⁻⁶ cm/s"

---

System: AGS gastric cells
Assay: Cytotoxicity MTT assay against AGS gastric cells
Format: cell-based, Human
Conditions: Homo sapiens, AGS; MTT, 48 h treatment; read-out: IC50 value against AGS cells ± SEM
pIC50: −log10 of the molar value.
Threshold check on pIC50: at or above 4 gives True, strictly below gives False.

molecule="CS(=O)(=O)c1cccc(-c2c(-c3cccc(OS(=O)(=O)c4ccc(F)cc4)c3)nc3sccn23)c1 [Compound 2f]" class_name=True
molecule="NS(=O)(=O)Oc1cccc(-c2nc3sccn3c2-c2ccccc2)c1 [Compound 1h]" class_name=False
molecule="CS(=O)(=O)Oc1cccc(-c2nc3sccn3c2-c2ccccc2)c1 [Compound 1a]" class_name=True
molecule="CS(=O)(=O)c1cccc(-c2c(-c3cccc(OS(=O)(=O)C4CCCCC4)c3)nc3sccn23)c1 [Compound 2d]" class_name=True

---

Counter-ions that a name gives are not always drawn.
Assay readout: melting point

compound="CCS(=O)(=O)Oc1cccc(-c2nc3sccn3c2-c2cccc(S(C)(=O)=O)c2)c1 [Compound 2b]" data_value="206 to 209 °C"
compound="CS(=O)(=O)c1cccc(-c2c(-c3cccc(OS(N)(=O)=O)c3)nc3sccn23)c1 [Compound 2h]" data_value="150 to 153 °C"
compound="CNS(=O)(=O)Oc1cccc(-c2nc3sccn3c2-c2ccccc2)c1 [Compound 1i]" data_value="161 to 164 °C"
compound="NS(=O)(=O)Oc1cccc(-c2nc3sccn3c2-c2ccccc2)c1 [Compound 1h]" data_value="173 to 175 °C"
compound="CS(=O)(=O)c1cccc(-c2c(-c3cccc(OS(=O)(=O)c4ccccc4)c3)nc3sccn23)c1 (as salt: benzenesulfonate) [Compound 2e]" data_value="193 to 195 °C"
compound="CCCS(=O)(=O)Oc1cccc(-c2nc3sccn3c2-c2cccc(S(C)(=O)=O)c2)c1 [Compound 2c]" data_value="188 to 191 °C"
compound="O=S(=O)(Oc1cccc(-c2nc3sccn3c2-c2ccccc2)c1)c1ccc(F)cc1 (as salt: benzenesulfonate) [Compound 1f]" data_value="109 to 111 °C"

---

Structures can show the parent of a compound that is named as a salt.
Below, each entry is listed alongside its reported melting point.
Assay readout: melting point

compound="CNS(=O)(=O)Oc1cccc(-c2nc3sccn3c2-c2cccc(S(C)(=O)=O)c2)c1 [Compound 2i]" data_value="> 250 °C"
compound="CS(=O)(=O)c1cccc(-c2c(-c3cccc(OS(=O)(=O)c4ccc(F)cc4)c3)nc3sccn23)c1 (as salt: benzenesulfonate) [Compound 2f]" data_value="103 to 105 °C"
compound="CS(=O)(=O)c1cccc(-c2c(-c3cccc(OS(=O)(=O)C4CCCCC4)c3)nc3sccn23)c1 [Compound 2d]" data_value="142 to 144 °C"
compound="O=S(=O)(Oc1cccc(-c2nc3sccn3c2-c2ccccc2)c1)C1CCCCC1 [Compound 1d]" data_value="118 to 120 °C"
compound="CCS(=O)(=O)Oc1cccc(-c2nc3sccn3c2-c2ccccc2)c1 [Compound 1b]" data_value="119 to 121 °C"
compound="Cc1ccc(S(=O)(=O)Oc2cccc(-c3nc4sccn4c3-c3ccccc3)c2)cc1 [Compound 1g]" data_value="103 to 106 °C"
compound="O=S(=O)(Oc1cccc(-c2nc3sccn3c2-c2ccccc2)c1)c1ccccc1 (as salt: benzenesulfonate) [Compound 1e]" data_value="119 to 122 °C"

---

Below, each entry is listed alongside its reported Selectivity index (SI).
Test system: AGS gastric cells
Assay: Cytotoxicity MTT assay against AGS gastric cells
Assay type: cell-based, Human
Conditions: toward H. pylori vis-à-vis AGS cells (IC50 values)
Assay readout: Selectivity index (SI)

compound="CS(=O)(=O)c1cccc(-c2c(-c3cccc(OS(=O)(=O)c4ccc(F)cc4)c3)nc3sccn23)c1 [Compound 2f]" assay_readout="Selectivity index (SI)" data_value=1.95
compound="NS(=O)(=O)Oc1cccc(-c2nc3sccn3c2-c2ccccc2)c1 [Compound 1h]" assay_readout="Selectivity index (SI)" data_value=5.18
compound="CS(=O)(=O)c1cccc(-c2c(-c3cccc(OS(=O)(=O)C4CCCCC4)c3)nc3sccn23)c1 [Compound 2d]" assay_readout="Selectivity index (SI)" data_value=2.0
compound="CS(=O)(=O)Oc1cccc(-c2nc3sccn3c2-c2ccccc2)c1 [Compound 1a]" assay_readout="Selectivity index (SI)" data_value=3.09
compound="O=S(=O)(Oc1cccc(-c2nc3sccn3c2-c2ccccc2)c1)C1CCCCC1 [Compound 1d]" assay_readout="Selectivity index (SI)" data_value=6.05

---

Assay: Caco-2 A-B permeability
Assay type: in vitro ADME
Conditions: human, pH 6.5–7.4, test concentration = MIC against H. pylori (19-50 μM), reference drugs 10 μM
Experimental: The apparent permeability coefficient (Papp) of the test compound was calculated as follows: Papp(cm/s)=VR*CR,end/Δt*1/A*(CD,mid‐CR,mid) where VR is the volume of the receiver chamber. […] CD,mid is the calculated mid-point concentration of the test compound in the donor side, which is the mean value of the donor concentration at time 0 minute and the donor concentration at the end time point. […] Concentrations of the test compound were expressed as peak areas of the test compound. […]
Threshold check on recovery: at or above 70% gives fulfilled, strictly below gives not fulfilled.

molecule=CS(=O)(=O)Oc1cccc(-c2nc3sccn3c2-c2ccccc2)c1 class_name="not fulfilled"
molecule=O=S(=O)(Oc1cccc(-c2nc3sccn3c2-c2ccccc2)c1)C1CCCCC1 class_name="not fulfilled"
molecule=CS(=O)(=O)c1cccc(-c2c(-c3cccc(OS(=O)(=O)C4CCCCC4)c3)nc3sccn23)c1 class_name=fulfilled
molecule="CC(C)NCC(O)COc1cccc2ccccc12 (stereo not shown) [Propranolol, reference compound]" class_name=fulfilled
molecule=NS(=O)(=O)Oc1cccc(-c2nc3sccn3c2-c2ccccc2)c1 class_name="not fulfilled"
molecule="CC(CCc1ccccc1)NCC(O)c1ccc(O)c(C(N)=O)c1 (stereo not shown) [Labetalol, reference compound]" class_name=fulfilled

---

Test system: E. coli
Assay readout: MIC

smiles_string=NS(=O)(=O)Oc1cccc(-c2nc3sccn3c2-c2ccccc2)c1 data_value="> 800 µM"
smiles_string=O=S(=O)(Oc1cccc(-c2nc3sccn3c2-c2ccccc2)c1)C1CCCCC1 data_value="> 800 µM"
smiles_string=CS(=O)(=O)Oc1cccc(-c2nc3sccn3c2-c2ccccc2)c1 data_value="> 800 µM"
smiles_string=CS(=O)(=O)c1cccc(-c2c(-c3cccc(OS(=O)(=O)c4ccc(F)cc4)c3)nc3sccn23)c1 data_value="> 800 µM"
smiles_string=CS(=O)(=O)c1cccc(-c2c(-c3cccc(OS(=O)(=O)C4CCCCC4)c3)nc3sccn23)c1 data_value="> 800 µM"

---

Tested on: E. coli
Assay: IC50 against E. coli (urease negative), micro broth dilution method
Type: cell-based, Escherichia coli
Conditions: E. coli ATCC 25922, micro broth dilution; read-out: IC50 ± SEM against E. coli (Urease-)
Assay readout: IC50 (mM)

compound="CC(=O)NO [Acetohydroxamic acid (AHA), Acetohydroxamic acid, reference compound]" unit_symbol=mM data_value=39.9

---

Assay readout: melting point

smiles_string=CS(=O)(=O)c1cccc(-c2c(-c3cccc(OS(=O)(=O)N4CCCCC4)c3)nc3sccn23)c1 data_value="76 to 79 °C"
smiles_string=CCCS(=O)(=O)Oc1cccc(-c2nc3sccn3c2-c2ccccc2)c1 data_value="120 to 123 °C"
smiles_string=O=S(=O)(Oc1cccc(-c2nc3sccn3c2-c2ccccc2)c1)N1CCCCC1 data_value="112 to 115 °C"
smiles_string=CS(=O)(=O)Oc1cccc(-c2nc3sccn3c2-c2ccccc2)c1 data_value="105 to 108 °C"
smiles_string=CS(=O)(=O)Oc1cccc(-c2nc3sccn3c2-c2cccc(S(C)(=O)=O)c2)c1 data_value="159 to 160 °C"
smiles_string=Cc1ccc(S(=O)(=O)Oc2cccc(-c3nc4sccn4c3-c3cccc(S(C)(=O)=O)c3)c2)cc1 data_value="172 to 174 °C"
